# Log Pmic per entry
Test: Micelle/water partition coefficient (Pmic) of the compound was determined
Format: physicochemical
Details: buffer
assay.readout: Log Pmic

- compound: "NC(N)=O [UREA]"
  measured.value: -0.12
- compound: "Cc1cc(=O)n(-c2ccccc2)n1C [ANTIPYRINE]"
  measured.value: 0.58
- compound: "O=c1[nH]cc(F)c(=O)[nH]1 [FLUOROURACIL]"
  measured.value: 0.21
- compound: "COc1cccc2c1C(=O)c1c(O)c3c(c(O)c1C2=O)C[C@@](O)(C(=O)CO)C[C@@H]3O[C@H]1C[C@H](N)[C@H](O)[C@H](C)O1 [DOXORUBICIN]"
  measured.value: 1.9
- compound: "CC[C@]1(O)C[C@H]2CN(CCc3c([nH]c4ccccc34)[C@@](C(=O)OC)(c3cc4c(cc3OC)N(C=O)[C@H]3[C@@](O)(C(=O)OC)[C@H](OC(C)=O)[C@]5(CC)C=CCN6CC[C@]43[C@@H]65)C2)C1 [VINCRISTINE]"
  measured.value: 2.48
- compound: "NC(N)=S [THIOUREA]"
  measured.value: 0.48
- compound: "Cc1ncc([N+](=O)[O-])n1CCO [METRONIDAZOLE]"
  measured.value: 0.54
- compound: "O=c1[nH]c(=O)n(C2CCCO2)cc1F (configuration not stated) [TEGAFUR]"
  measured.value: 0.7
- compound: "NC=O [FORMAMIDE]"
  measured.value: -0.35
- compound: "CN1CC(=O)NC1=N [CREATININE]"
  measured.value: -0.3
- compound: "CCc1nc(N)nc(N)c1-c1ccc(Cl)cc1 [PYRIMETHAMINE]"
  measured.value: 2.51
- compound: "CNC(=O)c1cccnc1 [NICOTINYL METHYLAMIDE]"
  measured.value: 0.39

Data origin, for the record: ChEMBL document CHEMBL1129683
